B1: PDLIM4 (parent)
chain: FLDERLYCESHAKARVKPPEGYDV

# Variants of: B1
# test description: protein stability index of a GFP-peptide fusion (GPS, HEK-293T) (PSI 1-6); higher = more stable;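 also: lentivirally expressed fusions sorted by FACS into six bins by GFP to DsRed ratio, PSI derived from sequencing read proportions per bin multiplied by bin number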
# run conditions: c terminus: a fixed tail appended
I'd appreciate it if you could label each record using protein stability index and these ranges: bin 0: < 2; bin 1: ≥ 2 and < 3; bin 2: ≥ 3

{"variant description": "R5K", "assigned label": "bin 0"}
{"variant description": "H11M", "assigned label": "bin 1"}
{"variant description": "Y7C", "assigned label": "bin 2"}
{"variant description": "V24L", "assigned label": "bin 0"}
{"variant description": "Y7H", "assigned label": "bin 2"}
{"variant description": "D3I", "assigned label": "bin 0"}
{"variant description": "C8W", "assigned label": "bin 1"}
{"variant description": "P19F", "assigned label": "bin 0"}
{"variant description": "E4D", "assigned label": "bin 0"}
{"variant description": "P19R", "assigned label": "bin 1"}
{"variant description": "L2A", "assigned label": "bin 0"}
{"variant description": "P18Y", "assigned label": "bin 1"}
{"variant description": "P18E", "assigned label": "bin 0"}
{"variant description": "Y22F", "assigned label": "bin 0"}
{"variant description": "L6T", "assigned label": "bin 1"}
{"variant description": "L2F", "assigned label": "bin 2"}
{"variant description": "V24Y", "assigned label": "bin 0"}
{"variant description": "K17I", "assigned label": "bin 0"}
{"variant description": "K17V", "assigned label": "bin 1"}
{"variant description": "C8K", "assigned label": "bin 0"}

These data points were gathered from the supplement of paper PMC10567573.
